tested on: A549; test: Antiinflammatory activity against human A549 cells assessed as inhibition of IL-1-alpha-induced ICAM1 expression; type: functional, cell-based
pIC50: −log10 of the molar value.
result type: pIC50

I = COc1cc([C@@H]2O[C@H](c3cc(OC)c4c(c3)OCO4)[C@@H](COC(C)=O)[C@@H]2COC(C)=O)cc(OC)c1O
II = COc1cc([C@@H]2O[C@H](c3cc(OC)c4c(c3)OCO4)[C@@H](COC(C)=O)[C@@H]2CO)cc(OC)c1OC
**Query** Among I and II , which shows a numerically higher pIC50 result? Indicate which entry you chose by stating its label.
**Result** I
(I: 4.07, II: 3.72)
